test system: Herpes simplex type 1; experiment: In vitro plaque reduction in VERO cell cultures (Example 16); assay type: cell-based; details: Human alphaherpesvirus 1, Vero, Experiment 3; plaque count reduced by 50%, VERO cells
measurement.type: pIC50
Entry type: numeric. Quantity: pIC50, the -log10 of concentration in molar units.

compound	measurement.type	experimental.result
Nc1nc2c(ncn2COCCO)c(=O)[nH]1 [acyclovir, 9-(2-hydroxyethoxymethyl) guanine, reference compound]	pIC50	6.96

Here is another compound to look at.
Task: Item Nc1nc2c(ncn2COC(CO)CO)c(=O)[nH]1 [Example 759U] has what recorded pIC50?
Result: 7.44

* * *

tested on: herpes simplex virus type 1; assay: Comparative in vivo activity against herpetic encephalitis in mice (Example 18); set-up: species or system CD.1 mice; settings: i.p., 100 mg/kg/dose twice daily for 4½ days, 300 LD50
measurement.type: Mean reciprocal survival time
Answer field: number only, no words.

Examples with their reported Mean reciprocal survival time follow.
compound	measured.target	Mean reciprocal survival time
Nc1nc(N)c2ncn(COC(CO)CO)c2n1 [Example 457U]	herpes simplex virus type 1	0.077
Nc1nc(N)c2ncn(COCCO)c2n1 [Example 134U, reference compound]	herpes simplex virus type 1	0.231
Nc1nc2c(ncn2COCCO)c(=O)[nH]1 [acyclovir, 9-(2-hydroxyethoxymethyl) guanine, reference compound]	herpes simplex virus type 1	0.236

Task: Look up Mean reciprocal survival time: Nc1nc2c(ncn2COC(CO)CO)c(=O)[nH]1 [Example 759U]
Result: 0.093

* * *

Assay: Solubility in water
Type: physicochemical
Source text: As mentioned above, the compounds of formula (I) have the important advantage of having a greater solubility in water than acyclovir. Thus, the compounds of formula (I) wherein X is an oxygen atom and R is a hydroxy group or amino group have solubilities of 0.4 -.0.5% and 2 - 3% w/w respectively compared with a figure of 0.14% w/w for acyclovir.
measurement.type: solubility (mg/mL)
Give a bare numeral; the unit mg/mL is implied.

Task: Item Nc1nc2c(ncn2COCCO)c(=O)[nH]1 [acyclovir, 9-(2-hydroxyethoxymethyl) guanine, reference compound] has what recorded solubility?
Result: 1.4

Sourced from patent EP0072027A1
